System: Plasmodium falciparum
Assay: GSK_TCMDC: Inhibition of Plasmodium falciparum Dd2 in whole red blood cells, using parasite LDH activity as an index of growth. Test compounds present at 2uM
Format: functional
Kindly state Inhibition for each of the entries shown.
Note: unit % is implicit; provide only the numeric part.

Query string: Provide one value: measured Inhibition of Cc1cccc(NC(=O)c2cnc(N3CCN(c4ccncc4)CC3)c(Cl)c2)c1.O=C(O)C(F)(F)F
Result string: 54

Query string: Supply measured Inhibition of COc1cc2c(C3CCN(CC4CCC(NC(=O)/C=C/c5ccc(Cl)c(Cl)c5)CC4)CC3)c[nH]c2cn1 (stereo not drawn) in your reply.
Result string: 100

Query string: Hello, please tell me recorded Inhibition for this one: CN1CCN(CCCN(Cc2ccc(-c3ccc(CNCc4ccc5c(c4)OCO5)cc3)cc2)C(=O)CCC2CCCC2)CC1.O=C(O)C(F)(F)F
Result string: 85

Query string: # return recorded Inhibition for entry O=C(NCCCCN1CCN(c2cccc3c2CCCC3)CC1)c1ccc(NC(=O)c2ccc(Cl)cc2)cc1
Result string: 85

Query string: Answer with the recorded Inhibition for the molecule listed here: O=C(O)C(F)(F)F.Oc1ccc(CCNc2nc(NCc3ccc4cc(Cl)ccc4c3)nc(N3CCNCC3)n2)cc1
Result string: 38

Query string: Give me measured Inhibition, please, for this molecule: CCN(CCCNc1nc(=S)[nH]c2cc(OC)c(OC)cc12)c1ccccc1
Result string: 23

Query string: Given Cc1cccc2nc(-c3ccc(-c4ccc(NC(=O)NC5CC5c5ccccc5)cc4)cc3)[nH]c12 (stereo not drawn) , respond with its Inhibition.
Result string: 3

Query string: Specify reported Inhibition for the molecule shown: O=C(Nc1ccc(OC2CCN(Cc3ccco3)CC2)c(Cl)c1)c1ccc2ncccc2c1.O=C(O)C(F)(F)F
Result string: 40

* * *

System: HepG2
Assay: GSK_TCMDC: Percent inhibition of human HepG2 cell line. Test compounds present at 10uM.
Assay type: functional
Assignment: determine reported Inhibition for the given compounds.
Supply the numeric figure in %, leaving out any unit text.

Query string: Give recorded Inhibition. Cc1cc(C)nc(-n2[nH]c(C)c(Cc3ccc(C(C)(C)C)cc3)c2=O)n1
Result string: 0

Query string: Look up and report measured Inhibition for this entry: CC(C)CNC(=O)c1cncc(-c2ccc(CN3CCC(N4CCCC4)CC3)cc2)c1.O=C(O)C(F)(F)F
Result string: 25

Query string: Using the record for CCC(C)CNC(=O)CN1CN(c2ccccc2)C2(CCN(C(=O)c3ccc(Br)cc3)CC2)C1=O (centres undefined) , state its measured Inhibition.
Result string: 10

Query string: Look up Inhibition of O=C(Nc1ccc(Cl)cc1)c1ccc(CN2CCCN(Cc3cccc(Cl)c3)CC2)cc1.O=C(O)C(F)(F)F and report it.
Result string: 53

Query string: State its Inhibition: CS(=O)(=O)N(c1ccccc1)c1cc(C(=O)N[C@@H](Cc2ccccc2)[C@H](O)CNC2CCCCC2)cc(N2CCCC2=O)c1
Result string: 8

Query string: Tell me measured Inhibition for COc1cc(Cc2cnc(N)nc2N)c2c(c1OC)OC(C)C=C2 (centres undefined) please.
Result string: 0

Query string: Give the reported value of Inhibition for this record: Fc1ccc2[nH]c(-c3ccc(-c4ccc(CN5CCN(CCN6CCOCC6)CC5)cc4)cc3)nc2c1.O=C(O)C(F)(F)F
Result string: 38

Query string: Determine from records and report Inhibition for COc1cc(NCC(O)CNc2cc(OC)c3ccccc3n2)nc2ccccc12
Result string: 42

Query string: Given the compound OC(CNCc1ccccc1OCc1ccccc1)c1cc(Br)cs1 (centres undefined) , write its reported Inhibition.
Result string: 16

* * *

Tested on: Plasmodium falciparum
Assay: GSK_TCMDC: Inhibition of Plasmodium falciparum Dd2 in whole red blood cells, using parasite LDH activity as an index of growth. Test compounds present at 2uM
Assay type: functional
Response field class: string, computed from recorded Inhibition by ranges bucket 1 = under 30%, bucket 2 = from 30% up to 90%, bucket 3 = 90% and over

Query string: Please let me know in which category the item Cc1cc2cc(NC(=O)Nc3ccnc4ccccc34)ccc2n1C.Cl belongs.
Result string: bucket 2

Query string: Lab note: which band did CS(=O)(=O)c1ccc(CCNCc2ccc(-c3ccc(CN(C(=O)C4CC(=O)c5ccccc54)C4CCN(Cc5ccccc5)CC4)cc3)nc2)cc1.O=C(O)C(F)(F)F (centres undefined) land in?
Result string: bucket 2

Query string: Categorize the following entry: Nc1c2c(nc3ccc(NC(=O)c4ccccc4)cc13)CCCC2
Result string: bucket 1

Query string: Any idea which band Cc1ccc2nc(C)cc(N/N=C/c3ccccc3[N+](=O)[O-])c2c1 is in?
Result string: bucket 3

Query string: # classify by Inhibition band: Cc1cc(N)c2cc(NC(=O)c3cccc4ccccc34)ccc2n1.Cl
Result string: bucket 1

Query string: Sort CC(=O)c1ccccc1C(=O)N1CCOc2ccc(C(O)C(c3ccccc3)c3ccccc3)cc2C1 (centres undefined) into one of the categories.
Result string: bucket 3

Query string: Hi there! Could you help me figure out the category for CSc1cccc(NC(=O)c2cc3ccccc3oc2=O)c1 please?
Result string: bucket 2

Query string: Band assignment needed for O=C(Cc1c[nH]cn1)Nc1cccc(-c2ccc(-c3nc4cc(F)ccc4[nH]3)s2)c1 please.
Result string: bucket 3

Query string: Class (by measured Inhibition) for CCCCC(CC)C(=O)C(NC(=O)[C@H](CSC(c1ccccc1)(c1ccccc1)c1ccccc1)NC(=O)OC(C)(C)C)C(=O)OC (some centres undefined)
Result string: bucket 2

* * *

Test system: Plasmodium falciparum
Assay: GSK_TCMDC: Inhibition of Plasmodium falciparum 3D7 in whole red blood cells, using parasite LDH activity as an index of growth. Test compounds present at 2uM
Type: functional
So I've got a bunch of compounds here, and I need their Inhibition values.
# output: bare number, implied unit %

Query string: Using known records, supply Inhibition for Cc1ccc(Oc2ccc(NC(=O)CNc3ccccc3N3CCCC3=O)cc2)cc1
Result string: 98

Query string: Assign Inhibition to the following record: CCN(CC)CCNc1ccnc2[nH]c3ccc(Cl)cc3c12
Result string: 100

Query string: Quick one: give measured Inhibition for Br.Cc1cc(C)c(C)c(OCCCON2C(=N)N=C(N)NC2(C)C)c1C
Result string: 94

Query string: Respond only with Inhibition recorded for O=C(O)C(F)(F)F.c1ccc(CN2CCC(NCc3ccccc3-c3ccc(CNCc4ccc5c(c4)OCO5)cc3)CC2)cc1
Result string: 100

Query string: Give reported Inhibition value for Cc1ccc(C)c(-n2c(SCC(=O)Nc3ccc(C(N)=O)cc3)nnc2-c2cccc(Cl)c2)c1
Result string: 92

Query string: Fill in Inhibition for record Cc1ccc(CCC(C)NCC(O)c2cccc(Cl)c2)cc1 (configuration not stated)
Result string: 97

Query string: Look up and report measured Inhibition for this entry: Cc1cc(NCCC(=O)NCCOc2ccccc2)nc(NCCc2ccc(F)cc2)n1.O=C(O)C(F)(F)F
Result string: 97

Query string: For the compound N#CC(c1ccc(Br)cc1)c1ccc2c(C(F)(F)F)cc(C(F)(F)F)nc2n1 (configuration not stated) , give its measured Inhibition value.
Result string: 100

Query string: Report measured Inhibition; entry is CCN(CC)C(=O)C1CCCN(C(=O)Nc2cc(C(F)(F)F)cc(C(F)(F)F)c2)C1 (configuration not stated)
Result string: 86

Query string: Specify reported Inhibition for the compound shown: CCN(CC)CCN(Cc1ccc(-c2ccc(C#N)cc2)cc1)C(=O)Cn1c(CCc2cccc(F)c2F)nc(=O)c2ccccc21.O=C(O)C(O)C(O)C(=O)O
Result string: 100

Query string: Tell me measured Inhibition for CCCCN(Cc1cnccc1-c1ccc(Br)cc1)c1ccc(C(O)(C(F)(F)F)C(F)(F)F)cc1.O=C(O)C(F)(F)F please.
Result string: 87

Query string: Query Inhibition for C[C@@H](C(N)=O)N1CCCCC1c1ccc(OCc2cccc(F)c2)cc1 (some centres not stated)
Result string: 84

Query string: // Input: Cl.Nc1ncnc2occ(-c3ccc(NC(=O)Nc4cc(C(F)(F)F)ccc4F)cc3)c12 [GW770249A] . Output its Inhibition only.
Result string: 99

Query string: Answer with the recorded Inhibition for the compound listed here: NS(=O)(=O)c1ccc(Nc2nccc(-c3c(-c4cccc(NC(=O)c5c(F)cccc5F)c4)nn4ccccc34)n2)cc1
Result string: 93

Query string: Given CC(Sc1nc2sccc2c(=O)n1C)C(=O)Nc1ccc2c(c1)OCO2 (configuration not stated) , respond with its Inhibition.
Result string: 100

Query string: Tell me measured Inhibition for O=C(Nc1ccc(N2CCCCC2)c(Cl)c1)c1ccc(Br)o1 please.
Result string: 94

Query string: Please indicate Inhibition recorded for CCc1c(CCNCCCCCCNCCc2ccc(OC)c(OC)c2C)ccc(OC)c1OC.Cl
Result string: 98

Query string: Provide measured Inhibition value, entry: CC(C)CNCc1cccc(-c2cccc(CNCCCN3CCN(C)CC3)c2)c1.O=C(O)C(F)(F)F
Result string: 88

Query string: Determine its reported Inhibition: CN1CCC(COc2ccc(CN3CCC(NC(=O)c4cccc(Cl)c4)CC3)cc2)CC1.O=C(O)C(F)(F)F
Result string: 94

Query string: Read off the recorded Inhibition for Cc1cc(N[C@@H](Cc2ccccc2)C(=O)NCc2cccc(F)c2)nc(NCc2ccccc2C)n1.O=C(O)C(F)(F)F
Result string: 100

Query string: Tell us which Inhibition value is on record for COc1ccc(Oc2ccc(Nc3ccnc4ccc(C(F)(F)F)cc34)cc2)cc1OC.Cl
Result string: 90

Query string: Specify reported Inhibition for the compound shown: O=C(/C=C/c1ccc(Cl)c(Cl)c1)NCCCCCN1CCCC(CNC(=O)/C=C/c2ccccc2)C1 (configuration not stated)
Result string: 98

Query string: Look up Inhibition of O=C(Nc1ccc2c(c1)OCO2)c1cc(-c2cccnc2)cnc1NCc1ccc2c(c1)OCO2 and report it.
Result string: 87

Query string: Respond only with Inhibition recorded for CCCCCCn1c(Sc2ccc(C#N)c([N+](=O)[O-])c2)nnc1-c1ccc(OC)cc1
Result string: 95

Query string: // Input: Cc1ccc2[nH]c([N-]C#N)nc2c1.[Na+] . Output its Inhibition only.
Result string: 96

Query string: Identify measured Inhibition associated with Clc1ccccc1CN1CCC(NCc2cccc(-n3ccnc3)c2)CC1.O=C(O)C(F)(F)F
Result string: 100

Query string: Answer with the recorded Inhibition of Cc1ccc(NC(=O)c2ccc3ncccc3c2)cc1OC1CCN(CCC(C)C)C1.O=C(O)C(F)(F)F (configuration not stated) only.
Result string: 98

Query string: Identify measured Inhibition associated with CC(C)Nc1nc(NCCc2c[nH]cn2)nc(NCc2ccc(Cl)c(Cl)c2)n1
Result string: 88

Query string: Give Inhibition for COc1ccc2c(c1)CC(C)(C)NC2CCCCCCCCC1NC(C)(C)Cc2cc(OC)ccc21.O=C(O)C(=O)O (configuration not stated)
Result string: 98

Query string: Indicate the recorded Inhibition value for this compound: Br.CC1(C)NC(N)=NC(=N)N1OCCCOc1cccc(Cl)c1
Result string: 95

Query string: Using known records, supply Inhibition for CCCCCCCN1CC[C@@H](CCCc2ccnc3ccc(OCCC4CCNCC4)cc23)[C@@H](CC)C1.Cl
Result string: 100

Query string: Write down Inhibition measured for item COc1cc2nc(N3CCC(CNC(=O)c4ccc(-c5ccc(Cl)cc5)cc4)CC3)nc(N)c2cc1OC
Result string: 100

Query string: Supply recorded Inhibition for CN(C)CCN(C)Cc1ccc(-c2cccc(-c3nc4ccccc4[nH]3)c2)cc1.O=C(O)C(F)(F)F here.
Result string: 100

Query string: Return the recorded Inhibition value; entry: Cc1[nH]cc(Br)c(=O)c1-c1ccc(Oc2ccc(OC(F)(F)F)cc2)cc1
Result string: 96

Query string: Identify measured Inhibition corresponding to O=C(Nc1cccnc1)c1cc(-c2cc(Cl)ccc2O)n[nH]1
Result string: 98

Query string: // fetch Inhibition given entry O=C(Nc1ccc(Br)cc1)c1cc(Br)ccc1NS(=O)(=O)c1cc(C(F)(F)F)cc(C(F)(F)F)c1
Result string: 85

Query string: Tell us which Inhibition value is on record for CCOc1cccc(C(=O)Nc2cccc(CN3CCCN(Cc4ccc(O)cc4)CC3)c2)c1.O=C(O)C(F)(F)F
Result string: 91
